Consider the following compounds; for each one, report its EC50.
Molecular target: human RXFP1 (Homo sapiens)
Sequence (Q9HBX9 whole entry): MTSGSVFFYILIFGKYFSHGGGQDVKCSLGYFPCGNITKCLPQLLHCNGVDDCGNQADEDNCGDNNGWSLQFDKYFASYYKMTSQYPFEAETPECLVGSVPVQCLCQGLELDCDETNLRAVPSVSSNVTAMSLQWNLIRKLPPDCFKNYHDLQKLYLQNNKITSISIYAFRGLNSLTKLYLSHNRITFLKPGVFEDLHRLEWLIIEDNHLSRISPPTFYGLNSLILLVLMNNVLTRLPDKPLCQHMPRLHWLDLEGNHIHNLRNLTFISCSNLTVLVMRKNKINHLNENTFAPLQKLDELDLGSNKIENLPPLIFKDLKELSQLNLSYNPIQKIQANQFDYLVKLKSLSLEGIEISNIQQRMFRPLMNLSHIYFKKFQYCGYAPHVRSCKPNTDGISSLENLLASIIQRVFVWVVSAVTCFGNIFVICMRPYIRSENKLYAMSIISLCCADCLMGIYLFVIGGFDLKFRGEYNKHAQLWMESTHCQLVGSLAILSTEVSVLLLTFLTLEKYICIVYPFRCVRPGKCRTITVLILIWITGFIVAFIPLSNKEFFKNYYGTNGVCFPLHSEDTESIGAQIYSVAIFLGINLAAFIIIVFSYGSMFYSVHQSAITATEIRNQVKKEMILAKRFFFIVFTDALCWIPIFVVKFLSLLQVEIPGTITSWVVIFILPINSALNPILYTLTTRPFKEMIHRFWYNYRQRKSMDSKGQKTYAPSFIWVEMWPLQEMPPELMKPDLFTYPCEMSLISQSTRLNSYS
Test: RXFP1 Hu cAMP (Test A)
Format: cell-based
Design: expressed in transfected cells; host or cells: Jump-In T-REx CHO-K1 cells (ThermoFisher), induced with 10 ng/ml doxycycline for 24 h
Conditions: RXFP1 Hu cAMP; read-out: Test A EC50

Some solved cases for reference:
# compound, EC50
records = [
    ("COc1cc(F)c(-c2ccc([C@@H]3C[C@H]3C(=O)O)nc2)cc1C(=O)N[C@@H]1[C@H]2CC[C@H](C2)[C@@H]1C(=O)Nc1cccc(S(=O)(=O)C(F)(F)F)c1 (single isomer, unassigned) [Example 262]", "26 nM"),
    ("COc1cc(F)c(-c2cccc(C(=O)O)c2)cc1C(=O)N[C@@H]1[C@H](C(=O)Nc2cccc(S(=O)(=O)C(F)(F)F)c2)[C@H]2C=C[C@@H]1C2 (single isomer, unassigned)", "> 50000 nM"),
    ("COc1cc(C#N)c(O[C@H]2CC[C@@](C)(C(=O)O)CC2)cc1C(=O)Nc1cc(Cl)ccc1C(=O)NCC1CCCCCC1", "88 nM"),
    ("COc1cc(F)c(O[C@H]2CC[C@@](C)(C(=O)O)CC2)cc1C(=O)N[C@@H]1[C@H]2CC[C@H](C2)[C@@H]1C(=O)NCC1(F)CCC1", "400 nM"),
]

Q: Request the reported EC50 associated with `COc1cc(C)c(O[C@H]2CC[C@@H](C(=O)O)CC2)cc1C(=O)N[C@@H]1[C@H]2CC[C@H](C2)[C@@H]1C(=O)Nc1cccc(S(=O)(=O)C(F)(F)F)c1`
A: 120 nM

###

Target: human RXFP1 (Homo sapiens)
Experiment: RXFP1 Hu cAMP (Test A)
Assay type: cell-based
Parameters: expressed in transfected cells; host or cells: Jump-In T-REx CHO-K1 cells (ThermoFisher), induced with 10 ng/ml doxycycline for 24 h
Conditions: RXFP1 Hu cAMP
Consider the following compounds; for each one, report its Test A Sinf.
Answers are plain numbers, in %.

# compound, Test A Sinf, %
rows = [
    ("COc1ccc(-c2cc(C(=O)N[C@H]3[C@@H](C(=O)Nc4cccc(S(=O)(=O)C(F)(F)F)c4)[C@@H]4C=C[C@H]3C4)c(OC)cc2F)cc1C(=O)O (racemic)", 116),
    ("COc1cc(F)c(-c2ccc(C(=O)O)cc2)cc1C(=O)N[C@H]1[C@@H]2CC[C@@H](C2)[C@H]1C(=O)N[C@H]1CCCN(S(=O)(=O)C(F)(F)F)C1 (single isomer, unassigned)", 74),
    ("COc1cc(F)c(O[C@H]2CC[C@@](C)(C(=O)O)CC2)cc1C(=O)N[C@@H]1COC[C@@H]1C(=O)Nc1ccc(F)c(C(F)(F)F)c1", 108),
    ("COc1cc(F)c(O[C@H]2CC[C@@](C)(C(=O)O)CC2)cc1C(=O)N[C@@H]1CCC[C@@H]1C(=O)NCC1(C)CC1", 97),
]

--- query ---
Q: Request the reported Test A Sinf associated with `CCC(C)(C)CNC(=O)[C@H]1[C@@H]2CC[C@@H](C2)[C@H]1NC(=O)c1cc(O[C@H]2CC[C@@](C)(C(=O)O)CC2)c(F)cc1OC`
A: 103

Values compiled from patent US11667602B2.
